System: NCI-H2347
assay-procedure: relative viability (nuclei count vs DMSO), 5 days (fraction); higher = more cells survive
settings: first compound 0.000632 µM
property: relative viability
Respond using a number only.

# input Give the measured relative viability of CC(=O)O[C@@]12CO[C@@H]1C[C@H](O)[C@@]1(C)C(=O)[C@H](O)C3=C(C)[C@@H](OC(=O)[C@H](O)[C@@H](NC(=O)OC(C)(C)C)c4ccccc4)C[C@@](O)([C@@H](OC(=O)c4ccccc4)[C@H]21)C3(C)C [Docetaxel] + NC(=O)Nc1cc(-c2cccc(F)c2)sc1C(=O)N[C@H]1CCCNC1 [AZD7762] (partner 0.2 µM) .
# output 0.583

# input Can you handle CC(=O)O[C@@]12CO[C@@H]1C[C@H](O)[C@@]1(C)C(=O)[C@H](O)C3=C(C)[C@@H](OC(=O)[C@H](O)[C@@H](NC(=O)OC(C)(C)C)c4ccccc4)C[C@@](O)([C@@H](OC(=O)c4ccccc4)[C@H]21)C3(C)C [Docetaxel] + Nc1ncn([C@H]2C[C@H](O)[C@@H](CO)O2)c(=O)n1 [Decitabine] (partner 2 µM) next?
# output 0.633

# input Also CC(=O)O[C@@]12CO[C@@H]1C[C@H](O)[C@@]1(C)C(=O)[C@H](O)C3=C(C)[C@@H](OC(=O)[C@H](O)[C@@H](NC(=O)OC(C)(C)C)c4ccccc4)C[C@@](O)([C@@H](OC(=O)c4ccccc4)[C@H]21)C3(C)C [Docetaxel] + CC(C)C[C@H](NC(=O)[C@H](Cc1ccccc1)NC(=O)c1cnccn1)B(O)O [Bortezomib] (partner 0.002 µM) , if possible.
# output 0.832

----------
Tested on: PC-14
assay-procedure: relative viability (nuclei count vs DMSO), 5 days (fraction); higher = more cells survive
settings: first compound 0.05 µM
property: relative viability
Enter the number alone.

# input Look at this compound and give its reported relative viability. Nc1ccn([C@@H]2O[C@H](CO)[C@@H](O)[C@@H]2O)c(=O)n1 [Cytarabine] + CC1(C)CCC(c2ccc(Cl)cc2)=C(CN2CCN(c3ccc(C(=O)NS(=O)(=O)c4ccc(N[C@H](CCN5CCOCC5)CSc5ccccc5)c(S(=O)(=O)C(F)(F)F)c4)cc3)CC2)C1 [Navitoclax] (partner 0.5 µM)
# output 0.803

# input Also Nc1ccn([C@@H]2O[C@H](CO)[C@@H](O)[C@@H]2O)c(=O)n1 [Cytarabine] + CS(=O)(=O)N1CCN(Cc2cc3nc(-c4cccc5[nH]ncc45)nc(N4CCOCC4)c3s2)CC1 [Pictilisib] (partner 1 µM) ?
# output 0.49

# input And COc1cc2nccc(Oc3ccc(NC(=O)Nc4cc(C)on4)c(Cl)c3)c2cc1OC [Tivozanib] + Cc1nc(Nc2ncc(C(=O)Nc3c(C)cccc3Cl)s2)cc(N2CCN(CCO)CC2)n1 [Dasatinib] (partner 0.075 µM) ?
# output 0.255

# input And Nc1ccn([C@@H]2O[C@H](CO)[C@@H](O)[C@@H]2O)c(=O)n1 [Cytarabine] + Nc1nc2[nH]cc(CCc3ccc(C(=O)N[C@@H](CCC(=O)O)C(=O)O)cc3)c2c(=O)[nH]1 [Pemetrexed] (partner 0.2 µM) ?
# output 0.187

----------
Provide the reported relative viability of each item.
Test system: ChaGo-K-1
assay-procedure: relative viability (nuclei count vs DMSO), 5 days (fraction); higher = more cells survive
settings: first compound 2.53 µM
Lab note: record the figure alone, no unit after it.

# input For the molecule O=c1[nH]c2ccccc2n1C1CCN(CCCC(c2ccc(F)cc2)c2ccc(F)cc2)CC1 [Pimozide] + COc1cc2c(Oc3ccc(NC(=O)C4(C(=O)Nc5ccc(F)cc5)CC4)cc3F)ccnc2cc1OCCCN1CCOCC1 [Foretinib] (partner 0.25 µM) , what relative viability is on record?
# output 0.811

# input And the next one, O=c1[nH]c2ccccc2n1C1CCN(CCCC(c2ccc(F)cc2)c2ccc(F)cc2)CC1 [Pimozide] + Nc1nc2[nH]cc(CCc3ccc(C(=O)N[C@@H](CCC(=O)O)C(=O)O)cc3)c2c(=O)[nH]1 [Pemetrexed] (partner 0.2 µM) ?
# output 0.267

# input Check Cc1cnc(-c2cnc(NCCNc3ccc(C#N)cn3)nc2-c2ccc(Cl)cc2Cl)[nH]1 + C[C@@H](Oc1cc(-c2cnn(C3CCNCC3)c2)cnc1N)c1c(Cl)ccc(F)c1Cl [Crizotinib] (partner 1 µM) too.
# output 0.989

# input Check O=c1[nH]c2ccccc2n1C1CCN(CCCC(c2ccc(F)cc2)c2ccc(F)cc2)CC1 [Pimozide] + CS(=O)(=O)N1CCN(Cc2cc3nc(-c4cccc5[nH]ncc45)nc(N4CCOCC4)c3s2)CC1 [Pictilisib] (partner 1 µM) too.
# output 0.762

# input Moving on to O=c1[nH]c2ccccc2n1C1CCN(CCCC(c2ccc(F)cc2)c2ccc(F)cc2)CC1 [Pimozide] + CCNC(=O)c1noc(-c2cc(C(C)C)c(O)cc2O)c1-c1ccc(CN2CCOCC2)cc1 [Luminespib] (partner 0.01 µM)
# output 0.496

----------
System: CAL-12T
assay-procedure: relative viability (nuclei count vs DMSO), 5 days (fraction); higher = more cells survive
settings: first compound 0.005 µM
property: relative viability
Response field accepts a number only; no unit should be typed.

# input Tell me the measured relative viability of COc1cc2nccc(Oc3ccc(NC(=O)Nc4cc(C)on4)c(Cl)c3)c2cc1OC [Tivozanib] + N=C(N)NC(=N)NCCc1ccccc1 [Phenformin] (partner 250 µM) , please.
# output 0.538

# input Follow-up entry: Nc1ccn([C@@H]2O[C@H](CO)[C@@H](O)[C@@H]2O)c(=O)n1 [Cytarabine] + CC(=O)Nc1cccc(-n2c(=O)n(C3CC3)c(=O)c3c(Nc4ccc(I)cc4F)n(C)c(=O)c(C)c32)c1 [Trametinib] (partner 0.02 µM)
# output 0.411

# input Next up: COc1cc2nccc(Oc3ccc(NC(=O)Nc4cc(C)on4)c(Cl)c3)c2cc1OC [Tivozanib] + C[C@@H](Oc1cc(-c2cnn(C3CCNCC3)c2)cnc1N)c1c(Cl)ccc(F)c1Cl [Crizotinib] (partner 1 µM)
# output 0.649

# input Also need Nc1ccn([C@@H]2O[C@H](CO)[C@@H](O)[C@@H]2O)c(=O)n1 [Cytarabine] + O=C(c1cc(Cc2n[nH]c(=O)c3ccccc23)ccc1F)N1CCN(C(=O)C2CC2)CC1 [Olaparib] (partner 8 µM) , thanks.
# output 0.859

----------
Test system: PC-14
assay-procedure: relative viability (nuclei count vs DMSO), 5 days (fraction); higher = more cells survive
settings: first compound 1.265 µM
property: relative viability
Number, no unit, nothing else.

# input Which relative viability is reported for this molecule? Cc1sc2c(c1C)C(c1ccc(Cl)cc1)=N[C@@H](CC(=O)OC(C)(C)C)c1nnc(C)n1-2 [JQ1] + C[C@]1(O)C[C@@H](c2nc(-c3ccc4ccc(-c5ccccc5)nc4c3)c3c(N)nccn32)C1 [Linsitinib] (partner 1 µM)
# output 0.611

# input And then Cc1sc2c(c1C)C(c1ccc(Cl)cc1)=N[C@@H](CC(=O)OC(C)(C)C)c1nnc(C)n1-2 [JQ1] + NC(=O)Nc1cc(-c2cccc(F)c2)sc1C(=O)N[C@H]1CCCNC1 [AZD7762] (partner 0.2 µM) , what is it?
# output 0.125

----------
System: NCI-H460
assay-procedure: relative viability (nuclei count vs DMSO), 5 days (fraction); higher = more cells survive
settings: first compound 15.81 µM
property: relative viability
The answer should be written as a number, with no unit following it.

# input Consider the compound O=C(O)CCCCC(CCSCc1ccccc1)SCc1ccccc1 (centres undefined) [CPI-613] + Cc1nc(NC(=O)N2CCC[C@H]2C(N)=O)sc1-c1ccnc(C(C)(C)C(F)(F)F)c1 [Alpelisib] (partner 2 µM) and give its measured relative viability.
# output 0.496

# input Moving on to the next compound: O=C(O)CCCCC(CCSCc1ccccc1)SCc1ccccc1 (centres undefined) [CPI-613] + Nc1nc2[nH]cc(CCc3ccc(C(=O)N[C@@H](CCC(=O)O)C(=O)O)cc3)c2c(=O)[nH]1 [Pemetrexed] (partner 0.2 µM)
# output 0.0607

# input One more compound: O=C(O)CCCCC(CCSCc1ccccc1)SCc1ccccc1 (centres undefined) [CPI-613] + CC(=O)Nc1cccc(-n2c(=O)n(C3CC3)c(=O)c3c(Nc4ccc(I)cc4F)n(C)c(=O)c(C)c32)c1 [Trametinib] (partner 0.02 µM)
# output 0.132

# input Now give it for O=C(O)CCCCC(CCSCc1ccccc1)SCc1ccccc1 (centres undefined) [CPI-613] + CS(=O)(=O)CCNCc1ccc(-c2ccc3ncnc(Nc4ccc(OCc5cccc(F)c5)c(Cl)c4)c3c2)o1 [Lapatinib] (partner 2 µM) too.
# output 0.853

----------
Record form. Attribute: relative viability. Fill in for each entry.
Test system: COR-L 105
assay-procedure: relative viability (nuclei count vs DMSO), 5 days (fraction); higher = more cells survive
settings: first compound 0.5 µM
The answer should be written as a number, with no unit following it.

# input Kindly state the measured relative viability obtained for Nc1ccn([C@@H]2O[C@H](CO)[C@@H](O)[C@@H]2O)c(=O)n1 [Cytarabine] + CC(C)C[C@H](NC(=O)[C@H](Cc1ccccc1)NC(=O)c1cnccn1)B(O)O [Bortezomib] (partner 0.002 µM) with COR-L 105.
# output 0.285

# input # iterate: COc1cc2nccc(Oc3ccc(NC(=O)Nc4cc(C)on4)c(Cl)c3)c2cc1OC [Tivozanib] + Cc1cc(Nc2cc(N3CCN(C)CC3)nc(Sc3ccc(NC(=O)C4CC4)cc3)n2)n[nH]1 [Tozasertib] (partner 0.1 µM)
# output 0.493

# input What would you report for COc1cc2nccc(Oc3ccc(NC(=O)Nc4cc(C)on4)c(Cl)c3)c2cc1OC [Tivozanib] + CC(=O)c1c(C)c2cnc(Nc3ccc(N4CCNCC4)cn3)nc2n(C2CCCC2)c1=O [Palbociclib] (partner 0.5 µM) ?
# output 0.415

# input Another molecule to look at: COc1cc2nccc(Oc3ccc(NC(=O)Nc4cc(C)on4)c(Cl)c3)c2cc1OC [Tivozanib] + CC(=O)Nc1cccc(-n2c(=O)n(C3CC3)c(=O)c3c(Nc4ccc(I)cc4F)n(C)c(=O)c(C)c32)c1 [Trametinib] (partner 0.02 µM)
# output 0.494

These data points were gathered from the supplement of paper PMC10307832.
